- system.under.test: mitochondrial pyruvate carrier (MPC) (Homo sapiens (Human), UniProt O95563+Q9Y5U8)
- Sequence (Q9Y5U8 whole entry): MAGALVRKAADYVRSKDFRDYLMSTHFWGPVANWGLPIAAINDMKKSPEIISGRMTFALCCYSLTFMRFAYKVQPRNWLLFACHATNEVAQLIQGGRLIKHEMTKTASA
- Sequence (O95563 whole entry): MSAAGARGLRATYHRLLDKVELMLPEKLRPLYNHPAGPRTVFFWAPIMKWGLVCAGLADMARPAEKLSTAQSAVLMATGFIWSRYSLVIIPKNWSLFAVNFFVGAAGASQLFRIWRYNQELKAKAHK
- experiment.notes: MPC inhibitory activity, BRET assay in HEK cells
- Format: cell-based
observation.type: IC50 (nM)
Express it in nM; write the number only.

Prompt: Which IC50 is reported with mitochondrial pyruvate carrier (MPC) (Homo sapiens (Human), UniProt O95563+Q9Y5U8) for this entry: CN(CCOc1ccc(CC2SC(=O)NC2=O)cc1)c1ccccn1 (stereo not shown) ?
Completion: 2000

From: patent US20250064791A1
